test system: OVCAR-3-derived ovarian cancer stem-like cells (spheroids); assay: cell growth relative to untreated control; higher = more growth (less inhibition); settings: 2.29 µM; 96 h
Threshold rule: cell growth greater than or equal to 90% is yes; below that, no.

A selection of reference data follows.
{"columns": ["compound", "label_class"],
 "data": [
  ["COc1ccc(C2C(C)C(=O)C(C)C(c3ccc(OC)cc3)N2N=O)cc1 (stereo not given)", "yes"],
  ["CC(=O)C(N1CCCCC1)C(O)(C(F)(F)F)C(F)(F)F (stereo not given)", "yes"]
]}

Decide: is the reported value of cell growth for Cc1c(N=Cc2ccc(N(CCC#N)CCC#N)cc2)c(=O)n(-c2ccccc2)n1C equal to or greater than 90%? yes

Evaluate COc1cc2c3c(c1OC)-c1cc4c(cc1CC3(C#N)N(C(=O)c1ccccc1)CC2)OCO4 (stereo not given) : cell growth at minimum 90%? yes
